# Test system: MCF7
# assay-comment: NCI tumour cell line growth inhibition, 48 h
Active and inactive are the calls of the source. No stated cut-off is given here; in the data, active = GI50 up to about 1.1 µM and inactive = higher.
Give your call using only these classes: active, inactive

Solved entries (count: 4):
1. Cc1n[nH]c(=O)n1Nc1ccccc1    inactive
2. COc1ccc(OC)c([N+](=O)[O-])c1-c1nc2sc(C)c(C)n2c1/C=N/N=C(N)N    inactive
3. COc1ccc(NCc2cc(OC)c(OC)c(OC)c2)cc1    active
4. CNN1C(=O)c2c(C)c(C)c(C#N)c(N)c2C1=O    inactive

Read the next record carefully.
Exercise: Would you mind telling me which call this test gave Cc1ccnc2c1C(=O)C1=C(OC(C)(C)CC1O)C2=O (stereo not given) ?
Key: inactive

====

# Tested on: 786-0
# assay-comment: NCI tumour cell line growth inhibition, 48 h
Active and inactive are the calls of the source. Cut-off read from the data, not from the text of the source: active = GI50 up to about 1.1 µM and inactive = higher.
Give your call using only these classes: 1 (yes) = active, 0 (no) = inactive

Solved entries (count: 5):
1) COc1cc(CCN)c(OC)c(OC)c1    0 (no)
2) O=C1[C@@H]2C(c3ccncc3)=NO[C@@H]2C(=O)N1c1ccc(Cc2ccc(N3C(=O)[C@H]4C(c5ccncc5)=NO[C@H]4C3=O)cc2)cc1    0 (no)
3) NC1=CN(Cc2ccccc2)C2=N/C(=C\c3ccccc3O)C(=O)N12    0 (no)
4) CCC(=C/[C@H](C)C/C=C/C(C)=C/[C@@H](C)C(=O)[C@@H](C)[C@H](O)[C@@H](C)CC)/C=C/[C@H]1CC=CC(=O)O1 [CALLYSTATIN A]    1 (yes)
5) O=C(NCP(=O)(O)O)c1cccnc1 [(NICOTINAMIDOMETHYL)PHOSPHONIC ACID]    0 (no)

Exercise: Would you mind telling me which call this test gave `O=C(NCCO)c1c(O)c2ccccc2[nH]c1=O` ?
Key: 0 (no)

Exercise: Repeat with `C[C@H]1C2Cc3cc(N)ccc3[C@@]1(C)CCN2CCc1ccccc1`
Key: 0 (no)

Exercise: Repeat with `CN(C)CCNC(=O)c1cccc2nc3c(C(=O)NCCN(C)C)cccc3nc12`
Key: 1 (yes)

====

Can you tell me GI50 for the items I'm about to list?
# System: NCI-H460
# assay-comment: NCI tumour cell line growth inhibition, 48 h
Calls of active or inactive are those of the source. Rule as the data show it: active = GI50 up to about 1.1 µM and inactive = higher.

Known GI50 results, listed for orientation:
1. Cc1ccc(S(=O)(=O)Nc2nc3ccccc3c(=O)n2C2CCCCC2)cc1    97.1 µM (inactive)
2. NC(=O)c1cccc(OCC(O)CO)c1 (stereo unspecified)    > 100 µM (inactive)
3. O=c1[nH]c(=O)n(C2CC(O)C(CO)O2)cc1C#Cc1ccc(F)cc1 (stereo unspecified)    > 100 µM (inactive)
4. O=C(c1ccccc1)C1OC12C(=O)Nc1ccccc12 (stereo unspecified)    41.7 µM (inactive)
5. N=C(N)c1ccc(OCCCCCOc2ccc(C(=N)N)cc2)cc1 [PENTAMIDINE]    2.98 µM (inactive)

Exercise: I have this molecule here, `Sc1nnc(-c2ccnc(-c3nnc(S)[nH]3)c2)[nH]1` , and I need its recorded GI50.
Key: > 100 µM (inactive)

====

Can you tell me GI50 for the items I'm about to list?
# System: UACC-257
# assay-comment: NCI tumour cell line growth inhibition, 48 h
Activity calls are given as the source filed them. Rule as the data show it: active = GI50 up to about 1.1 µM and inactive = higher.

1) O=C1/C(=C/c2ccc(O)c(CN3CCCCC3)c2)CCC/C1=C\c1ccc(O)c(CN2CCCCC2)c1    10.6 µM (inactive)
2) Cn1c(N(CCO)CCO)cnc1[N+](=O)[O-]    > 100 µM (inactive)
3) C[C@H]1CC[C@H]([C@@H](C)[C@H]2[C@@H](O)C[C@H]3[C@@H]4CC[C@H]5C[C@@H](O)CC[C@]5(C)[C@H]4CC[C@]23C)NC1    18.4 µM (inactive)
4) O=CC12C3CCC1C2C(=O)C3 (centres undefined)    > 100 µM (inactive)
5) O=C(NC12CC3CC(CC(C3)C1)C2)C(=O)c1c[nH]c2ccc(Br)cc12    43.4 µM (inactive)

Provide reported GI50 for each item, in the same order as listed.
1. C=C1CCCCCCCCCCC1[S+]([O-])c1ccccc1 (centres undefined)
2. O=C1[C@@H]2C(c3ccccc3F)=NO[C@@H]2C(=O)N1c1ccc(Cc2ccc(N3C(=O)[C@H]4C(c5ccccc5F)=NO[C@H]4C3=O)cc2)cc1
3. Nc1nnc2c(-c3ccccc3)n[nH]c2n1
4. CC12CCCC3(CC(=O)C(C)(C)C3C(=O)C1)C2 (centres undefined)

Key:
["47.1 µM (inactive)", "> 100 µM (inactive)", "50.7 µM (inactive)", "> 100 µM (inactive)"]
